Measured growth, listed per entry.
# System: E. coli TESEC Alr+ wild-type control
# MEASUREMENT PROTOCOL: growth (OD600 after 10 h); higher = more growth (less inhibition)
# TEST CONTEXT: compound 0.1 mM; raw OD600 reference: median of DMSO wells 0.241, cell-free background 0.041
Counter-ions that a name gives are not always drawn.
# respond with the number and nothing more

Consider the reported growth for these molecules:
CN(C)CCOC1=Cc2ccccc2Sc2ccc(Cl)cc21 [Zotepine]    0.179
C[C@H]1O[C@H](O[C@H]2[C@H](O)[C@@H](O)[C@@H](O[C@@H]([C@H](O)[C@@H](O)C=O)[C@H](O)CO)O[C@@H]2CO)[C@H](O)[C@@H](O)[C@@H]1N[C@H]1C=C(CO)[C@@H](O)[C@H](O)[C@H]1O [Acarbose]    0.261
Oc1ccc(OCc2ccccc2)cc1 [Monobenzone]    0.176
CN1[C@@H]2CC[C@H]1C[C@@H](OC(c1ccccc1)c1ccccc1)C2 [Benztropine mesylate]    0.17

Let's switch to this molecule now.
Request: Name the reported growth value associated with the molecule COc1ccc(CC(C)NCC(O)c2ccc(O)c(NC=O)c2)cc1 (configuration not stated) [Formoterol fumarate]
Result: 0.235
